- CONDITION: in acetonitrile, 283.15 K
MEASUREMENT_NAME: solubility (mole fraction)
Answer field: number only, no words.

Entry COC(=O)C1=C(C)NC(C)=C(C(=O)OCC(C)C)C1c1ccccc1[N+](=O)[O-] (stereo unspecified) has what solubility (mole fraction)?
0.0102

====

- CONDITION: in ethyl acetate, 308.15 K
MEASUREMENT_NAME: solubility (mole fraction)
Answer field: number only, no words.

Entry COC(=O)C1=C(C)NC(C)=C(C(=O)OCC(C)C)C1c1ccccc1[N+](=O)[O-] (stereo unspecified) has what solubility (mole fraction)?
0.0358

====

- CONDITION: in cyclohexane, 308.15 K
MEASUREMENT_NAME: solubility (mole fraction)
Answer field: number only, no words.

Entry COC(=O)C1=C(C)NC(C)=C(C(=O)OCC(C)C)C1c1ccccc1[N+](=O)[O-] (stereo unspecified) has what solubility (mole fraction)?
0.000164
